Sourced from patent US10344019B2

Answer each item with its documented EC50.
System: HCV 2a JFH-1 Rluc cells (dicistronic genotype 2a JFH-1 replicon, RLuc reporter)
Assay: microbe, parasite or virus in culture
Type: cell-based
Conditions: Hepatitis C virus, genotype 2a JFH-1 RLuc replicon; read-out: 2a JFH
Experimental: Evaluation of cell-based anti-HCV activity: Antiviral potency (EC50) was determined using a Renilla luciferase (RLuc)-based HCV replicon reporter assay. […] 72 hours later, cells were lysed and Renilla luciferase activity quantified as recommended by the manufacturer (Promega-Madison, Wis.). […]

These recorded examples may help you get a feel for the data.
CC[C@H](C)[C@H](NC(=O)OC)C(=O)N1C[C@@H](C)C[C@H]1c1ncc(-c2ccc3c(c2)COc2cc4c(ccc5nc([C@@H]6C[C@H](COC)CN6C(=O)[C@@H](NC(=O)OC)[C@@H](C)OC)[nH]c54)cc2-3)[nH]1; 0.001 to 0.999 nM
COC[C@H]1C[C@@H](c2nc3ccc4cc5c(cc4c3[nH]2)OCc2cc(-c3cnc([C@@H]4C[C@H](C)CN4C(=O)[C@@H](NC(=O)OC)C(C)C)[nH]3)ccc2-5)N(C(=O)[C@H](NC(=O)OC)c2ccccc2)C1; 0.001 to 0.999 nM
COC(=O)N[C@H](C(=O)N1C[C@@H](C)C[C@H]1c1ncc(-c2ccc3c(c2)COc2cc4c(ccc5nc([C@@H]6C[C@H](C)CN6C(=O)[C@@H](NC(=O)OC)C(C)C)[nH]c54)cc2-3)[nH]1)C(C)C; 0.001 to 0.999 nM

State the recorded EC50 for every item in the following list.
1. COC[C@H]1C[C@@H](c2nc3ccc4cc(-c5ccc6c(ccc7nc([C@@H]8CC[C@H](C)N8C(=O)[C@@H](NC(=O)OC)C(C)C)[nH]c76)c5)ccc4c3[nH]2)N(C(=O)[C@H](NC(=O)OC)c2ccccc2)C1
2. COC[C@H]1C[C@@H](c2nc3ccc4cc5c(cc4c3[nH]2)OCc2cc(-c3ccc4nc([C@@H]6CCCN6C(=O)[C@@H](NC(=O)OC)C(C)C)[nH]c4c3)ccc2-5)N(C(=O)[C@@H](NC(=O)OC)C(C)C)C1
3. COC[C@H]1C[C@@H](c2nc3ccc4cc5c(cc4c3[nH]2)OCc2cc(-c3cnc([C@@H]4CCCN4C(=O)[C@H](NC(=O)OC)c4ccccc4)[nH]3)ccc2-5)N(C(=O)[C@@H](NC(=O)OC)C(C)C)C1
4. COC(=O)N[C@H](C(=O)N1[C@@H]2C[C@@H]2C[C@H]1c1nc2ccc3cc4c(cc3c2[nH]1)OCc1cc(-c2cnc([C@@H]3CCCN3C(=O)[C@H](NC(=O)OC)c3ccccc3)[nH]2)ccc1-4)C(C)C
5. CC[C@H](C)[C@H](NC(=O)OC)C(=O)N1[C@@H](C)CC[C@H]1c1ncc(-c2ccc3c(c2)COc2cc4c(ccc5nc([C@@H]6C[C@H](COC)CN6C(=O)[C@H](NC(=O)OC)c6ccccc6)[nH]c54)cc2-3)[nH]1
6. COC[C@H]1C[C@@H](c2nc3ccc4cc(-c5ccc6c(ccc7nc([C@@H]8C[C@H](C)CN8C(=O)[C@@H](NC(=O)OC)C(C)C)[nH]c76)c5)ccc4c3[nH]2)N(C(=O)[C@H](NC(=O)OC)c2ccccc2)C1
7. COC(=O)N[C@H](C(=O)N1[C@@H](C)CC[C@H]1c1ncc(-c2ccc3c(c2)COc2cc4c(ccc5nc([C@@H]6CC[C@H](C)N6C(=O)[C@@H](NC(=O)OC)C(C)C)[nH]c54)cc2-3)[nH]1)C(C)C
8. COC(=O)N[C@@H](C(=O)N1[C@@H]2C[C@@H]2C[C@H]1c1ncc(-c2cc3c4c(c2)OCc2cc(-c5cnc([C@@H]6C[C@H]7C[C@H]7N6C(=O)[C@H](NC(=O)OC)c6ccccc6)[nH]5)cc(c2-4)OC3)[nH]1)c1ccccc1

Response given:
1. 0.001 to 0.999 nM
2. 0.001 to 0.999 nM
3. 0.001 to 0.999 nM
4. 0.001 to 0.999 nM
5. 0.001 to 0.999 nM
6. 0.001 to 0.999 nM
7. 0.001 to 0.999 nM
8. 0.001 to 0.999 nM

State the recorded EC50 for every item in the following list.
1. COC(=O)N[C@H](C(=O)N1[C@@H](C)CC[C@H]1c1ncc(-c2ccc3c(c2)COc2cc4c(ccc5nc([C@@H]6CC[C@H](C)N6C(=O)[C@@H](NC(=O)OC)[C@@H](C)OC)[nH]c54)cc2-3)[nH]1)[C@@H](C)OC
2. COC(=O)N[C@H](C(=O)N1CCC[C@H]1c1ncc(-c2ccc3c(c2)COc2cc4c(ccc5nc([C@@H]6C[C@H]7C[C@H]7N6C(=O)[C@@H](NC(=O)OC)C(C)C)[nH]c54)cc2-3)[nH]1)C(C)C
3. COC[C@H]1C[C@@H](c2nc3ccc4cc5c(cc4c3[nH]2)OCc2cc(-c3cnc([C@@H]4CCCN4C(O)[C@@H](NC(=O)OC)[C@@H](C)OC)[nH]3)ccc2-5)N(C(=O)[C@H](NC(=O)OC)c2ccccc2)C1 (some centres unmarked)
4. COC[C@H]1C[C@@H](c2ncc(-c3cc4c5c(c3)OCc3cc(-c6cnc([C@@H]7CC[C@H](C)N7C(=O)[C@@H](NC(=O)OC)C(C)C)[nH]6)cc(c3-5)OC4)[nH]2)N(C(=O)[C@@H](NC(=O)OC)C(C)C)C1
5. COC[C@H]1C[C@@H](c2nc3ccc4cc5c(cc4c3[nH]2)OCc2cc(-c3cnc([C@@H]4CCCN4C(=O)[C@@H](NC(=O)OC)C(C)C)[nH]3)ccc2-5)N(C(=O)[C@H](NC(=O)OC)c2ccccc2)C1
6. CC#Cc1cc2nc([C@@H]3CCCN3C(=O)[C@@H](NC(=O)OC)C(C)C)[nH]c2c2ccc(-c3ccc4c(ccc5nc([C@@H]6C[C@H](COC)CN6C(=O)[C@H](NC(=O)OC)c6ccccc6)[nH]c54)c3)cc12

Response given:
0.001 to 0.999 nM
0.001 to 0.999 nM
0.001 to 0.999 nM
0.001 to 0.999 nM
0.001 to 0.999 nM
0.001 to 0.999 nM
